Tested on: Saccharomyces cerevisiae;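 note: PSI is a weighted mean of sequencing reads over stability bins, variants kept only with over 10 reads, mCherry proximal and sfGFP distal, peptide attached via GGGS linker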
Experiment: protein stability index of tFT-peptide fusion (C-terminal peptide) (PSI (0-1 scale)); higher = more stable (slower turnover)
Settings: genetic background: wild type; temperature: 30 C
Assign criterion met whenever protein stability index does not fall below 0.7; assign criterion not met whenever it does.

Solved entries:
| Record sequence | Class assignment |
| --- | --- |
| FAHRVVCFCVFS | criterion not met |
| PKVDLSVVRSGY | criterion not met |
| LLCIPFPTRSLI | criterion met |
| PWWDALLRARVC | criterion not met |
| IGRSPRVLSATP | criterion not met |
| AFYLCLYFMPVS | criterion not met |
| MICGCLWGSEGR | criterion not met |
| LFFFVFFVLFSV | criterion not met |
| GGAPMRPGGGTC | criterion not met |
| FGDLAVFFAFLL | criterion not met |

Record SAKGGVLLIGLF ; criterion: protein stability index no lower than 0.7. Met?
criterion not met

Record GGGGGVWGVGRV ; criterion: protein stability index no lower than 0.7. Met?
criterion not met

Record VLLGTVRCCFLG ; criterion: protein stability index no lower than 0.7. Met?
criterion not met
